The origin of these recorded values is patent US10301317B2.

Tested on: phospho-p90 RSK (RSK1 Thr359/Ser363) in A375 (Braf V600E) cells
Test: Phospho-p90 RSK ELISA using A375 (Braf V600E) cells
Type: cell-based
Details: Homo sapiens, A-375, 2 hours compound treatment, read-out: Cellular Phospho-p90RSK IC50
Description: In preparation for the assay, an ELISA plate with the pre-coated goat anti-mouse antibody (Thermo Scientific) was treated with a mouse anti-human RSK1 antibody (monoclonal, Invitrogen) at 1:800 dilution (150 ng/well) in PBS, and the plate was placed on a plate shaker at 4° C. overnight. […] Finally, 100 μL of TMB stop solution (Thermo Scientific) was added to each well and the absorbance is measured at 450 nm on a Tecan plate reader.
pIC50: −log10 of the molar value.
Measured pIC50 accompanies every entry in the list below.

// solved cases for pIC50 follow
> print(dat)
                                   compound                               studytarget  measurementtype        result
1  Cc1cc(-c2n[nH]c3cc4c(cc23)CN([C@@H]2CCCN(CC3CCCC3)C2)C(=O)N4)ccn1  phospho-p90 RSK (RSK1 Thr359/Ser363) in A375 (Braf V600E) cells            pIC50  6.00 to 6.60
2  COc1ccc(-c2n[nH]c3cc4[nH]c(=O)c(C5CCCN(Cc6ccccc6)C5)cc4cc23)cn1 (stereo not drawn)  phospho-p90 RSK (RSK1 Thr359/Ser363) in A375 (Braf V600E) cells            pIC50  6.00 to 6.60

Would you kindly look at the next entry?
// map O=C1Nc2cc3[nH]nc(-c4ccc(N5CCOCC5)nc4)c3cc2CN1Cc1cccc(Cl)c1 to recorded pIC50 (system: phospho-p90 RSK (RSK1 Thr359/Ser363) in A375 (Braf V600E) cells)
≥ 6.60

====

Measured pIC50 accompanies every entry in the list below.
System: phospho-p90 RSK (RSK1 Thr359/Ser363) in A375 (Braf V600E) cells
Assay: Phospho-p90 RSK ELISA using A375 (Braf V600E) cells
Format: cell-based
Settings: Homo sapiens, A-375, 2 hours compound treatment, read-out: Cellular Phospho-p90RSK IC50
pIC50: −log10 of the molar value.

> print(dat)
                                   compound        result
1  Cc1cc(-c2n[nH]c3cc4c(cc23)CN([C@H](C)c2ccc(F)cc2)C(=O)N4)ccn1 [Example 5]  6.00 to 6.60
2  Cc1cc(-c2n[nH]c3cc4c(cc23)CN(Cc2ccc(F)c(Cl)c2)C(=O)N4)ccn1 [Example 8]        ≥ 6.60
3  Cc1ccc(-c2n[nH]c3cc4c(cc23)CN([C@@H]2CCN(CC(F)(F)F)C2)C(=O)N4)cn1 [Example 274]        ≥ 6.60

Which pIC50 reading was recorded for the compound Cc1cc(-c2n[nH]c3cc4c(cc23)CN([C@@H]2CCCN(CCC(F)(F)F)C2)C(=O)N4)ccn1 [Example 178] ?
≥ 6.60

====

Tested on: phospho-p90 RSK (RSK1 Thr359/Ser363) in A375 (Braf V600E) cells
Test: Phospho-p90 RSK ELISA using A375 (Braf V600E) cells
Type: cell-based
Conditions: Homo sapiens, A-375, 2 hours compound treatment, read-out: Cellular Phospho-p90RSK IC50
Experimental: In preparation for the assay, an ELISA plate with the pre-coated goat anti-mouse antibody (Thermo Scientific) was treated with a mouse anti-human RSK1 antibody (monoclonal, Invitrogen) at 1:800 dilution (150 ng/well) in PBS, and the plate was placed on a plate shaker at 4° C. overnight. […] Finally, 100 μL of TMB stop solution (Thermo Scientific) was added to each well and the absorbance is measured at 450 nm on a Tecan plate reader.
measurementType: IC50

// solved cases for IC50 follow
> print(dat)
                                   compound          result
1  Cc1cc(-c2n[nH]c3cc4c(cc23)CN([C@H]2CCN(CC(F)(F)F)C2)C(=O)N4)cc(C)n1  250 to 1000 nM
2  Cc1cc(-c2n[nH]c3cc4c(cc23)CN([C@H]2CCN(CC(F)(F)F)C2)C(=O)N4)ccn1        ≤ 250 nM
3  Cc1ncc(-c2n[nH]c3cc4c(cc23)CN([C@@H]2CN(CC(F)(F)F)C[C@H]2c2ccccc2)C(=O)N4)cn1        ≤ 250 nM
4  Cc1cc(-c2n[nH]c3cc4c(cc23)CN([C@@H]2CCCN(Cc3cccs3)C2)C(=O)N4)ccn1        ≤ 250 nM
5  Cc1cc(-c2n[nH]c3cc4c(cc23)CN([C@H]2CCCN(CC(F)(F)F)C2)C(=O)N4)ccn1  250 to 1000 nM
6  COc1ccc(-c2n[nH]c3cc4c(cc23)CN(Cc2cc(F)cc(F)c2)C(=O)N4)cn1        ≤ 250 nM

Would you kindly look at the next entry?
Which IC50 reading was recorded for the compound COc1ccc(-c2n[nH]c3cc4c(cc23)CN([C@@H]2CN(C)C[C@H]2c2ccccc2)C(=O)N4)cn1 (mixture of isomers) ?
≤ 250 nM
